tested on: EKVX NSCLC; experiment: NCI tumour cell line growth inhibition, 48 h; in the data active = GI50 below about 0.43 µM; inactive = the rest
Outcomes: active, inactive

- molecule: "COc1ccc(Nc2nnc(-c3cc(O)ccc3O)s2)cc1"
  assigned-label: "inactive"
- molecule: "CN1C(=O)N(C)C2C1NN=c1s/c(=C\\c3ccc(Cl)cc3Cl)c(=O)n12 (stereo not drawn)"
  assigned-label: "active"
- molecule: "CCn1c2ccccc2c2cc(NC(=O)Nc3ccc([N+](=O)[O-])cc3C)ccc21"
  assigned-label: "inactive"

====

The following compounds are listed with their measured TGI values.
system: HOP-62 NSCLC; assay: NCI tumour cell line growth inhibition, 48 h
readout-kind: TGI

- compound: "CCOC(=O)CN1C(=O)c2ccc(NC(=O)C(=O)O)cc2S1(=O)=O"
  experimental-value: "> 100 µM"
- compound: "CC(C)C(=O)OCC1OC(n2c(Br)nc3c(=O)[nH]c(N)nc32)C(OC(=O)C(C)C)C1OC(=O)C(C)C (centres undefined)"
  experimental-value: "> 100 µM"
- compound: "O=C(O)[C@@H]1CCS(=O)(=O)N1"
  experimental-value: "> 100 µM"
- compound: "COc1cc(NS(C)(=O)=O)ccc1Nc1c2ccccc2nc2c1[nH]c1ccc(NC3OC(CO)C(O)C(O)C3O)cc12 (centres undefined)"
  experimental-value: "0.208 µM"
- compound: "CS(=O)(=O)CCNCc1nc(-c2ccc3ncnc(Nc4ccc(OCc5cccc(C(F)(F)F)c5)cc4)c3c2)cs1"
  experimental-value: "12.9 µM"
- compound: "CC(O)C1(CNc2cc(Cl)nc(N)n2)CCC1 (centres undefined)"
  experimental-value: "> 100 µM"
- compound: "COC(=O)c1ccccc1/C=C1\\Cc2ccc(C)c(C)c2C1=O"
  experimental-value: "> 100 µM"
- compound: "Cc1ccc(/C=C/C(=O)c2sc(-c3nc(C)c(C(=O)/C=C/c4ccc(C)cc4)s3)nc2C)cc1"
  experimental-value: "> 100 µM"
- compound: "CC(=O)c1sc(Nc2nnc(-c3ccc(-c4nnc(Nc5nc(C)c(C(C)=O)s5)o4)cc3)o2)nc1C"
  experimental-value: "> 100 µM"
